Could you please report measured pKd for the items listed next?
# system: T1, recombinant His-tagged full-length ERG (UniProt P11308 1-479, biotinylated with NHS-PEG4 biotin for the OctetRED assays)
# T1 construct: mature; Baculovirus expression in SF9 cells, Ni-NTA purified; also called wild-type ERG; wtERG; not shown: His tag
# T1 sequence (looked up): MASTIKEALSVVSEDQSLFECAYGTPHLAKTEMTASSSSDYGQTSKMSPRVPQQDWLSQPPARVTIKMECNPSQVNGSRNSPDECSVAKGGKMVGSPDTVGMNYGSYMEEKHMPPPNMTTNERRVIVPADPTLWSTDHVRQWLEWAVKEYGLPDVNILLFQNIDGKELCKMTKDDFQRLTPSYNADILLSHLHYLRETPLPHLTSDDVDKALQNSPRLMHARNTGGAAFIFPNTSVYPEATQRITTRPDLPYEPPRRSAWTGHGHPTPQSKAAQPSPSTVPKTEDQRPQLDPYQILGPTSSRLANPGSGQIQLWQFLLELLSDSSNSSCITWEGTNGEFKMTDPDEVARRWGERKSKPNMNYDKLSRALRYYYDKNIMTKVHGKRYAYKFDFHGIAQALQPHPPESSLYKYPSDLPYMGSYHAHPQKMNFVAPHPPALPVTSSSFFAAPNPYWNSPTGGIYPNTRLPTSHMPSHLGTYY
# measurement.protocol: Kd table of synthetic peptides on ERG; assay not given
Give bare numbers, as −log10 of the molar value.

Worked cases, pKd given:
binder: Ac-LPPKLFT-NH2 [capped EIP1 with Y at position four mutated to K]
pKd: 5.37
--
binder: Ac-LPPELFT-NH2 [capped EIP1 with Y at position four mutated to E]
pKd: 5.44
--
binder: LPPYLFT [EIP1 synthetic peptide LPPYLFT]
pKd: 6.01

q: Name the recorded pKd of the item Ac-LPPYEFT-NH2 [capped EIP1 with L at position five mutated to E] in your answer.
a: 5.29

Hey, just so you know, these numbers are from patent US20180273595A1.
